tested on: human FGFR3 V555M enzyme (cytoplasmic domain carrying V555M mutation) (Homo sapiens, UniProt P22607, V555M)
Construct: cytoplasmic domain carrying V555M mutation, from Cama Biosciences; purchased Cama Biosciences (so in the source)
Sequence (P22607 397-806 V555M limits assumed): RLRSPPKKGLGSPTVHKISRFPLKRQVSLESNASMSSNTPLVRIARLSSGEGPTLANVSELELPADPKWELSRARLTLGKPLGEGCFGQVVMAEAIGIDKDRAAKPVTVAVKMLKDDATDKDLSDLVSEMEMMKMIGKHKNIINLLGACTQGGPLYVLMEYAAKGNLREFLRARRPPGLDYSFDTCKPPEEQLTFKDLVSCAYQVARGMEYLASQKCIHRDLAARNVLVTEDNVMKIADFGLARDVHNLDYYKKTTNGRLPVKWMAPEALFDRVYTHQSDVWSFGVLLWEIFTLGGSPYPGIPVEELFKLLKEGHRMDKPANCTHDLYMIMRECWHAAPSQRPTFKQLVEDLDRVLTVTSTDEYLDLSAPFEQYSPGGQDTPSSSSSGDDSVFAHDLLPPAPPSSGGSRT
test details: FGFR3 V555M mobility shift assay (enzymatic assay)
Type: biochemical
assay conditions: 30 μM ATP, 45 minutes at 30° C.; read-out: FGFR3 V555M Caliper
test readout: log10 IC50 (log10 of the value in nM)
Could you please treat all values as log10 of IC50 in nM?

Input: What does the record list as log10 IC50 for `C[C@@H](Nc1c(-c2nc3cnc(N4CCOCC4)cc3[nH]2)c(=O)[nH]c2ccsc12)c1ncccn1` ?
Output: 0.44

Input: Record request: log10 IC50 value, item COC[C@H](Nc1c(-c2nc3ccc(N4C[C@@H](C)O[C@@H](C)C4)nc3[nH]2)c(=O)[nH]c2ccsc12)c1ncccn1 (single isomer, unassigned)
Output: -0.03

Input: Entry CC(C)[C@H](Nc1c(-c2nc3cnc(N4CCN(C)CC4)cc3[nH]2)c(=O)[nH]c2ccsc12)c1ncccn1 (single isomer, unassigned) : reported log10 IC50 = ?
Output: -0.48

Input: What value of log10 IC50 has been recorded for this entry: `C[C@H](Nc1c(-c2nc3cnc(N4CCN(C)CC4)cc3[nH]2)c(=O)[nH]c2ccsc12)c1ncccn1`
Output: -0.89

Input: Would you mind telling me what log10 IC50 value was observed for COCC(Nc1c(-c2nc3cnc(N4C[C@@H](C)O[C@@H](C)C4)cc3[nH]2)c(=O)[nH]c2ccsc12)c1ncccn1 (single isomer, unassigned) [Compound 8] ?
Output: 0.97

Input: Which measured log10 IC50 value corresponds to `C[C@H](Nc1c(-c2nc3cnc(N4CCOCC4)cc3[nH]2)c(=O)[nH]c2ccsc12)c1ncccn1` ?
Output: -0.64

Input: Which log10 IC50 is reported for this compound? COC[C@@H](Nc1c(-c2nc3ccc(N4C[C@@H](C)O[C@@H](C)C4)nc3[nH]2)c(=O)[nH]c2ccsc12)c1ncccn1 (single isomer, unassigned)
Output: 2.08

Input: Please look up its log10 IC50: COCC(Nc1c(-c2nc3cnc(N4C[C@@H](C)O[C@@H](C)C4)cc3[nH]2)c(=O)[nH]c2ccsc12)c1ncccn1 (single isomer, unassigned) [Compound 7]
Output: 0.37
